Source of measurements: ChEMBL document CHEMBL3091444

# Measurement protocol: Volume of distribution at steady state in Sprague-Dawley rat at 3 mg/kg, iv
# Assay type: ADME, organism-based
# Design: dose 3 mg/kg, route intravenous
# Assay conditions: in vivo, read-out: Vdss
Assay endpoint: Vd
Write the quantity with the unit trailing the number.

Summary for this compound, Cc1c(N2CCCC2=O)cccc1S(=O)(=O)N[C@@H](CNC(=O)c1ccc(Cl)s1)C(=O)N1CCN(C)CC1.Cl : Vd is 4.6 L/kg

* * *

# Measurement protocol: Half life in Sprague-Dawley rat at 3 mg/kg, iv
# Format: ADME, organism-based
# Parameters: dose 3 mg/kg, route intravenous
# Assay conditions: in vivo
Assay endpoint: half-life (h)
// note: answer is a bare numeric in h

// half-life lookup, molecule = Cc1c(N2CCCC2=O)cccc1S(=O)(=O)N[C@@H](CNC(=O)c1ccc(Cl)s1)C(=O)N1CCN(C)CC1.Cl , result: 6.6

* * *

# Measurement protocol: Cmax in Sprague-Dawley rat at 10 mg/kg, po
# Type: ADME, organism-based
# Design: dose 10 mg/kg, route oral
# Assay conditions: in vivo
Assay endpoint: Cmax

Short answer for Cc1c(N2CCCC2=O)cccc1S(=O)(=O)N[C@@H](CNC(=O)c1ccc(Cl)s1)C(=O)N1CCN(C)CC1.Cl : Cmax was 154 ng/mL

* * *

# Measurement protocol: Volume of distribution at steady state in dog at 3 mg/kg, iv
# Assay type: ADME, organism-based, Canis lupus familiaris
# Set-up: dose 3 mg/kg, route intravenous
# Assay conditions: in vivo, read-out: Vdss
Assay endpoint: Vd
Answer as a quantity: numeral, then unit.

GET /value?item= Cc1c(N2CCCC2=O)cccc1S(=O)(=O)N[C@@H](CNC(=O)c1ccc(Cl)s1)C(=O)N1CCN(C)CC1.Cl &field=Vd returns 1.5 L/kg

* * *

# Measurement protocol: AUC in dog at 10 mg/kg, po
# Assay type: ADME, organism-based, Canis lupus familiaris
# Parameters: dose 10 mg/kg, route oral
# Assay conditions: plasma
Assay endpoint: AUC (ng·h/mL)
Express the result in ng·h/mL but write the number alone.

Entry Cc1c(N2CCCC2=O)cccc1S(=O)(=O)N[C@@H](CNC(=O)c1ccc(Cl)s1)C(=O)N1CCN(C)CC1.Cl , AUC reported as 2600

* * *

# Measurement protocol: Cmax in Sprague-Dawley rat at 3 mg/kg, iv
# Assay type: ADME, organism-based
# Set-up: dose 3 mg/kg, route intravenous
# Assay conditions: in vivo
Assay endpoint: Cmax (ng/mL)
Give the value, in units of ng/mL, as a plain number.

Cmax reported for this molecule Cc1c(N2CCCC2=O)cccc1S(=O)(=O)N[C@@H](CNC(=O)c1ccc(Cl)s1)C(=O)N1CCN(C)CC1.Cl : 1300

* * *

# Measurement protocol: AUC in Sprague-Dawley rat at 3 mg/kg, iv
# Format: ADME, organism-based
# Design: dose 3 mg/kg, route intravenous
# Assay conditions: plasma
Assay endpoint: AUC (ng·h/mL)
Supply the numeric figure in ng·h/mL, leaving out any unit text.

The recorded AUC for entry Cc1c(N2CCCC2=O)cccc1S(=O)(=O)N[C@@H](CNC(=O)c1ccc(Cl)s1)C(=O)N1CCN(C)CC1.Cl equals 510

* * *

# Measurement protocol: Metabolic stability in Sprague-Dawley rat liver microsomes at 5 uM after 20 mins
# Assay type: ADME
# Assay conditions: read-out: Stability
Consider the cut-off 50%. If the recorded remaining at 20 min, 5 µM is strictly smaller, the label is 1 (yes); if not, the label is 0 (no).

Query string: Consider the compound CN1CCN(C(=O)[C@H](CNC(=O)c2ccc(Cl)s2)NS(=O)(=O)c2cccc(N3CCOCC3=O)c2Cl)CC1 . Is its remaining at 20 min, 5 µM strictly less than 50%?
Result string: 0 (no)

Query string: Take the compound CN1CCN(C(=O)[C@H](CNC(=O)c2ccc(Cl)s2)NS(=O)(=O)c2cccc(N3CCCC3=O)c2Cl)CC1 and say whether its remaining at 20 min, 5 µM is less than 50%.
Result string: 0 (no)

Query string: In plain terms, does Cc1c(N2CCOCC2=O)cccc1S(=O)(=O)N[C@@H](CNC(=O)c1ccc(Cl)s1)C(=O)N1CCOC[C@@H]1C come in under 50% for remaining at 20 min, 5 µM?
Result string: 0 (no)

Query string: Is 50% strictly greater than the compound's reported remaining at 20 min, 5 µM? compound: CCc1c(N2CCOCC2=O)cccc1S(=O)(=O)N[C@@H](CNC(=O)c1ccc(Cl)s1)C(=O)N1CCC(OC)CC1
Result string: 0 (no)

Query string: API: query returns whether the compound falls strictly under 50% in remaining at 20 min, 5 µM. Query: O=C(NC[C@H](NS(=O)(=O)c1cccc(N2CCOCC2=O)c1Cl)C(=O)N1CCC(O)CC1)c1ccc(Cl)s1
Result string: 0 (no)

Query string: State whether 50% exceeds remaining at 20 min, 5 µM recorded for CCc1c(N2CCOCC2=O)cccc1S(=O)(=O)N[C@@H](CNC(=O)c1ccc(Cl)s1)C(=O)N1CCOC[C@@H]1C .
Result string: 0 (no)

Query string: Identify whether the compound CCc1c(-c2ccccn2)cccc1S(=O)(=O)N[C@@H](CNC(=O)c1ccc(Cl)s1)C(=O)N1CCOC[C@@H]1C records remaining at 20 min, 5 µM below 50%.
Result string: 0 (no)

Query string: Given the entry Cc1c(N2CCOCC2=O)cccc1S(=O)(=O)N[C@@H](CNC(=O)c1ccc(Cl)s1)C(=O)N1CCN(C)CC1 , would its reported remaining at 20 min, 5 µM be below 50%?
Result string: 1 (yes)

Query string: Quick check: remaining at 20 min, 5 µM of Cc1c(N2CCCC2=O)cccc1S(=O)(=O)N[C@@H](CNC(=O)c1ccc(Cl)s1)C(=O)N1CCN(C)CC1.Cl under 50%?
Result string: 1 (yes)
